Tested on: rat endothelial cerebral cells
Experiment: LDH release from rat endothelial cerebral cells, beta-amyloid (Aβ25-35) toxicity
Type: cell-based
Details: Aβ25-35 30 μM, 3 days; drug added 1 hour before
quantity: Prevention of Aβ25-35 intoxication, LDH release

{"compound": "CN(C/C=C/C#CC(C)(C)C)Cc1cccc2ccccc12 [Terbinafine]", "assay-value": "significantly prevented"}
{"compound": "NCC(CC(=O)O)c1ccc(Cl)cc1 (stereo not drawn) [Baclofen (−), Baclofen]", "assay-value": "significantly prevented"}
{"compound": "Cc1noc(NS(=O)(=O)c2ccc(N)cc2)c1C [Sulfisoxazole]", "assay-value": "significantly prevented"}
{"compound": "Cc1oncc1C(=O)Nc1ccc(C(F)(F)F)cc1 [Leflunomide]", "assay-value": "significantly prevented"}
